Assay: chemical genetic growth profiling, strain panel (AID 1159580);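 further: tested at 20 µM; growth read once vehicle control cultures reached saturation at 30 °C; 1 = growth at the plate median or of vehicle wells; lower values mean less growth of the strain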
Conditions: S. cerevisiae deletion strains, growth OD, locus YDL192W, strain arf1, active compounds read low
Among all 5,500 compounds or so, about 2,000 (36%) were called active. About 18% were inconclusive and are not listed. The list shows a part of the results.
normalized growth listing for selected compounds.
QUANTITY_MEASURED: normalized growth

| COMPOUND | QUANTITY_MEASURED | MEASURED |
| --- | --- | --- |
| CC(=O)Oc1ccc2c(c1OC(C)=O)OCC1(O)Cc3c(cc(OC(C)=O)c(OC(C)=O)c3OC(C)=O)C21 (stereo unspecified) | normalized growth | 1.01 |
| Cc1cc(C2CCCCC2)n(O)c(=O)c1 | normalized growth | 0.0653 |
| CC12CCC3c4ccc(OCc5ccccc5)cc4CCC3C1C[C@@H](O)[C@@H]2O (stereo partly specified) | normalized growth | 0.0627 |
| O=c1c(O)c(-c2ccc(O)c(O)c2)oc2cc(O)cc(O)c12 | normalized growth | 0.958 |
| O=C(OC1Cc2c(O)cc(O)cc2OC1c1cc(=O)c(O)c2c(O)c(O)cc(C3Oc4cc(O)cc(O)c4CC3O)c2c1)c1cc(O)c(O)c(O)c1 (stereo unspecified) | normalized growth | 0.747 |
| O=C(O)C1=C[C@@H](O)[C@@H](O)[C@H](O)C1 | normalized growth | 1.02 |

---

Experiment: chemical genetic growth profiling, strain panel (AID 1159580)
Conditions: S. cerevisiae deletion strains, growth OD, locus YJR075W, strain HOC1, active compounds read low
The whole screen tested about 5,500 compounds, of which about 2,000 (36%) were called active. Not shown: some 18% with an inconclusive outcome. Some of the results follow.

| COMPOUND | normalized growth |
| --- | --- |
| C[C@]12CC[C@@H]3c4ccc(O)cc4CC[C@H]3[C@@H]1CC[C@@H]2O | 1.01 |
| COc1cc2c(cc1OC)[C@@H](c1ccccc1)CN(C)CC2 | 1.01 |
| CC1(C)C(=O)C=C[C@@]2(C)C1CC(=O)[C@]1(C)C2CC[C@@]2(C)[C@H](c3ccoc3)OC(=O)[C@H]3O[C@]321 (stereo partly drawn) | 0.995 |

---

normalized growth listing for selected molecules.
Experiment: chemical genetic growth profiling, strain panel (AID 1159580);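 further: tested at 20 µM; growth read once vehicle control cultures reached saturation at 30 °C; 1 = growth at the plate median or of vehicle wells; lower values mean less growth of the strain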
Settings: S. cerevisiae deletion strains, growth OD, locus YNR049C, strain mso1, active compounds read low
Screen size: about 5,500 compounds; about 2,000 (36%) were called active. Another 18% or so got no clear call; they are omitted. The list shows a part of the results.

| MOLECULE | normalized growth |
| --- | --- |
| CC(C)(C)NCC(O)c1cc(O)cc(O)c1 (stereo not drawn) | 0.983 |
| CC(=O)[C@@]1(O)CCC2C3C[C@H](C)C4=CC(=O)C=CC4(C)[C@@]3(F)[C@@H](O)C[C@@]21C (stereo partly drawn) | 0.951 |
| CCCCC1C(=O)N(c2ccccc2)N(c2ccc(O)cc2)C1=O (stereo not drawn) | 1.01 |
| CCN[C@@H]1C[C@H](N)[C@@H](O[C@H]2OC(CN)=CC[C@H]2N)[C@H](O)[C@H]1OC1OC[C@](C)(O)[C@H](NC)[C@H]1O (stereo partly drawn) | 0.995 |
| CN[C@@H]1[C@@H](O)C(OC2[C@@H](N)C[C@@H](N)[C@H](O[C@H]3O[C@H](C(C)O)[C@@H](O)[C@H](O)[C@H]3N)[C@H]2O)OC[C@]1(C)O (stereo partly drawn) | 0.979 |
| CC(C)[N+](C)(CCC(C(N)=O)(c1ccccc1)c1ccccc1)C(C)C | 0.995 |
| CNC(C)C(O)c1ccccc1 (stereo not drawn) | 1.01 |
| CCc1cc(C(N)=S)ccn1 | 1 |

---

Experiment: chemical genetic growth profiling, strain panel (AID 1159580);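 further: tested at 20 µM; growth read once vehicle control cultures reached saturation at 30 °C; 1 = growth at the plate median or of vehicle wells; lower values mean less growth of the strain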
Details: S. cerevisiae deletion strains, growth OD, locus YMR231W, strain pep5, active compounds read low
Among all 5,500 compounds or so, about 2,000 (36%) were called active. Inconclusive results (about 18%) are left out. The list shows a part of the results. Where a SMILES comes first, the peptide text is derived from it.
normalized growth listing for selected molecules.
QUANTITY_MEASURED: normalized growth

| MOLECULE | MEASURED |
| --- | --- |
| O=c1c(O)c(-c2ccc(O)c(O)c2)oc2c(O)c(O)cc(O)c12 | 0.999 |
| COc1c2ccoc2cc2oc(=O)ccc12 | 0.983 |
| COc1cc(OC)c2ccc(=O)oc2c1 | 0.965 |
| COc1ccc(-c2cc(=O)c3c(O)cc(O[C@@H]4O[C@H](CO[C@H]5O[C@H](C)[C@@H](O)[C@H](O)[C@@H]5O)[C@@H](O)[C@H](O)[C@H]4O)cc3o2)cc1O | 1.02 |
| C[C@@H]1CC[C@@]2(NC1)O[C@H]1C[C@H]3C4CC=C5C[C@@H](O)CC[C@]5(C)C4CC[C@]3(C)C1[C@@H]2C (stereo partly specified) | 0.319 |
| CC(C)(C)NCC(O)c1cc(Cl)c(N)c(Cl)c1 (stereo unspecified) | 1 |
| CCCC(C)(COC(N)=O)COC(=O)NC(C)C (stereo unspecified) | 0.999 |
| CCC(c1ccc(O)cc1)C(CC)c1ccc(O)cc1 (stereo unspecified) | 1.01 |
| CCc1cc(C(N)=S)ccn1 | 1 |
| CN1C[C@H](C(=O)N[C@]2(C)O[C@@]3(O)[C@@H]4CCCN4C(=O)[C@H](Cc4ccccc4)N3C2=O)C[C@@H]2c3cccc4[nH]cc(c34)C[C@H]21 | 1.01 |
| COC(=O)[C@H](Cc1ccccc1)NC(=O)[C@@H](N)CC(=O)O (H-Asp-Phe-OMe) | 1.03 |
| C[C@@H]([C@H](O)c1ccccc1)N(C)C | 1.01 |
| CC[n+]1c(-c2ccccc2)c2cc(N)ccc2c2ccc(N)cc21 | 0.986 |
| CC(C)N(CCC(C(N)=O)(c1ccccc1)c1ccccn1)C(C)C (stereo unspecified) | 0.095 |
| C[C@@H]1CC[C@@]2(OC1)O[C@H]1CC3C4CC[C@H]5C[C@@H](O)CC[C@]5(C)C4CC[C@]3(C)[C@H]1[C@@H]2C (stereo partly specified) | 0.998 |
| COC(=O)[C@]1(C)CCC[C@]2(C)c3ccc(C(C)C)cc3C(=O)CC12 (stereo partly specified) | 0.974 |
| CC(CC(C(N)=O)(c1ccccc1)c1ccccc1)N(C)C (stereo unspecified) | 0.983 |
| CC(=O)OC(C)C[N+](C)(C)C (stereo unspecified) | 0.994 |
| COC1=CC(=O)C(O)=C/C1=C\C=C\c1ccccc1 | 0.068 |
| COC(=O)[C@@]1(C)CCC[C@]2(C)c3ccc(O)c(C(C)C)c3CCC12 (stereo partly specified) | 0.996 |
| O=c1ccc2cc(OC3OC(CO)C(O)C(O)C3O)c(O)cc2o1 (stereo unspecified) | 1 |
| CCC(N)C(O)c1ccc(O)c(O)c1 (stereo unspecified) | 0.996 |
| CO[C@@]1(NC(=O)C(C(=O)O)c2ccc(O)cc2)C(=O)N2C(C(=O)O)=C(CSc3nnnn3C)CO[C@@H]21 (stereo partly specified) | 0.991 |
| CC1CC[C@]2(NC1)O[C@H]1CC3C4CC[C@H]5C[C@@H](O)CC[C@]5(C)C4CC[C@]3(C)[C@H]1[C@@H]2C (stereo partly specified) | 0.106 |
| CCOC(=O)c1c(C)cc(OC)cc1O | 0.985 |
| O=C(O)C1=C[C@@H](O)[C@@H](O)[C@H](O)C1 | 0.967 |
| C[C@@H]1O[C@@H](OC[C@H]2OC(Oc3c(-c4ccc(O)c(O)c4)oc4cc(O)cc(O)c4c3=O)[C@H](O)[C@@H](O)[C@@H]2O)[C@H](O)[C@H](O)[C@H]1O (stereo partly specified) | 1 |
| COc1ccc2ccc(=O)oc2c1 | 0.996 |
| NC(=NCCC[C@H](N)C(=O)O)N[N+](=O)[O-] | 1.01 |
| COC(=O)c1c(C)cc(O)cc1O | 1.01 |
| NC(=O)NCCCC(N)C(=O)O (stereo unspecified) | 1.01 |

---

normalized growth listing for selected molecules.
Assay: chemical genetic growth profiling, strain panel (AID 1159580);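 further: tested at 20 µM; growth read once vehicle control cultures reached saturation at 30 °C; 1 = growth at the plate median or of vehicle wells; lower values mean less growth of the strain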
Conditions: S. cerevisiae deletion strains, growth OD, locus YCL061C, strain MRC1, active compounds read low
Among all 5,500 compounds or so, about 2,000 (36%) were called active. Roughly 18% stayed inconclusive and do not appear here. The list shows a part of the results.
QUANTITY_MEASURED: normalized growth

| MOLECULE | QUANTITY_MEASURED | MEASURED |
| --- | --- | --- |
| O=C(O[C@@H]1Cc2c(O)cc(O)cc2O[C@@H]1c1cc(O)c(=O)c2c(O)c(O)cc([C@H]3Oc4cc(O)cc(O)c4C[C@H]3OC(=O)c3cc(O)c(O)c(O)c3)c2c1)c1cc(O)c(O)c(O)c1 | normalized growth | 0.724 |
| C[C@@H]([C@H](O)c1ccccc1)N(C)C | normalized growth | 1.01 |
| O=c1c(O)c(-c2ccc(O)c(O)c2)oc2c(O[C@@H]3O[C@H](CO)[C@H](O)[C@@H](O)[C@H]3O)c(O)cc(O)c12 | normalized growth | 1 |
| NC(=O)CN1CCCC1=O | normalized growth | 0.981 |
| Cc1ccccc1OCC(O)CO (stereo not drawn) | normalized growth | 0.993 |
| O=C(OC1Cc2c(O)cc(O)cc2OC1c1cc(=O)c(O)c2c(O)c(O)cc(C3Oc4cc(O)cc(O)c4CC3O)c2c1)c1cc(O)c(O)c(O)c1 (stereo not drawn) | normalized growth | 0.942 |
| C[C@@H]1O[C@@H](OC[C@H]2OC(Oc3c(-c4ccc(OCCO)c(OCCO)c4)oc4cc(OCCO)cc(O)c4c3=O)[C@H](O)[C@@H](O)[C@@H]2O)[C@H](O)[C@H](O)[C@H]1O (stereo partly drawn) | normalized growth | 0.973 |
| CCC(N)C(O)c1ccc(O)c(O)c1 (stereo not drawn) | normalized growth | 0.991 |
